Attribution: PubChem BioAssay (NCI)

Readings of TGI for the listed compounds
Test system: NCI-H23 lung
Test: NCI tumour cell line growth inhibition, 48 h
// return numeric value only (unit: µM, not printed)

Example compounds with recorded TGI:
>  <given smiles>
CC1=C(C(=O)Nc2ccc(Cl)c(Cl)c2)C(c2ccc([N+](=O)[O-])cc2)C(C(=O)Nc2ccc(Cl)c(Cl)c2)=C(C)N1

>  <readout value>
5.98

$$$$
>  <given smiles>
COc1ccc2c(-c3ccnc(Nc4cccc(OC(F)(F)F)c4)n3)cnn2n1

>  <readout value>
7.41

$$$$
>  <given smiles>
COc1ccc(C(=O)/C=C/c2ccc(OCC#N)cc2)cc1

>  <readout value>
49.6

$$$$

The compound listed as COC(=O)c1cc(-c2ccc(OC)c(OC)c2)[nH]c1N/N=C/c1c(Cl)cccc1Cl has a reported TGI of 13

---

Tested on: OVCAR-5 ovarian
Assay: NCI tumour cell line growth inhibition, 48 h
outcome measure: TGI

>  <compound>
C[n+]1c2ccccc2nc2c(N)cc(N)cc21

>  <readout value>
> 100 µM

$$$$
>  <compound>
CCN(CC)c1nnc(CCCCCCCCc2nnc(N(CC)CC)o2)o1

>  <readout value>
> 100 µM

$$$$
>  <compound>
O=C1C(OCCOc2ccccc2)=C(OCCOc2ccccc2)C(=O)c2ccccc21

>  <readout value>
> 100 µM

$$$$
>  <compound>
N#C/C(C(=S)NCc1ccccc1)=C(/N)N1CCCC1

>  <readout value>
> 100 µM

$$$$

Lookup result for C[N+](C)(C)c1ncnc2c1ncn2C1CCCO1 (centres undefined) ; measured TGI: > 100 µM

Form field TGI, entry NNc1nnc(-c2nnc(NN)o2)o1 : > 10 µM

So for COc1ccc(Nc2ccnc(N3CCN(c4ccnc5cc(Cl)ccc45)CC3)n2)cc1 , the logged TGI turned out to be > 100 µM

Reported TGI of c1ccc2c(c1)CCc1c-2n[nH]c1-c1[nH]nc2c1CCc1ccccc1-2 : > 100 µM

Looking up CSc1ccc(C2=NN(C(C)=O)C(c3ccc(-c4ccc(Cl)cc4)o3)C2)cc1 (centres undefined) , I found its TGI recorded as > 100 µM

The value of TGI measured for the compound CC(=O)/C(=C\c1ccccc1O)C(=O)Nc1ccccc1C turned out to be 37.1 µM

Summary for this compound, N#CCN1C(=O)c2cc([N+](=O)[O-])cc3cc([N+](=O)[O-])cc(c23)C1=O : TGI is 36.1 µM

Field TGI (entry COc1cc2cc(Oc3ccc(NC(=O)c4ccc(Cl)c(Cl)c4)cc3)c(C)nc2cc1OC ) reads > 100 µM

Consider CCc1c(C)nc2sc3c(N)ncnc3c2c1C . Its measured TGI is > 25 µM

GET /value?item= Cc1ccc(NC(=O)C(=O)C(C(=O)/C=C/c2ccccc2)C2OC(=O)c3ccccc32)c(C)c1 (centres undefined) &field=TGI returns > 100 µM

Item: O=C(NNS(=O)(=O)c1ccc(Cl)cc1Cl)c1cccnc1Nc1ccc(Cl)cc1 | TGI: 78.2 µM

TGI recorded for this compound, COc1ccc2c(c1)C(=O)c1c-2c(OCCN(C)C)nc2ccccc12 , is 18.5 µM

get_value(item= CCOc1ccc(NC(=O)CCc2nnc(SC)o2)cc1 , readout=TGI) returns > 100 µM

Measured TGI, COc1cc(-c2nn(-c3cccc(NC(=O)CCN4CCN(Cc5ccccc5)CC4)c3)cc2-c2ccncc2)ccc1Cl : > 100 µM

// field: TGI; key: COc1cc(/C=C/c2ccc3c(Br)cc(Br)c(O)c3n2)ccc1O ; value = 5.84 µM

---

Tested on: TK-10 renal
Assay: NCI tumour cell line growth inhibition, 48 h
outcome measure: TGI

See these solved cases before continuing.
>  <molecule>
N#Cc1nc(C#N)n(S(=O)(=O)c2ccccc2)c1NS(=O)(=O)c1ccccc1

>  <TGI>
> 100 µM

$$$$
>  <molecule>
CCN1C(=O)N(CC)C2C1NN=c1s/c(=C\c3ccc(F)cc3)c(=O)n12 (stereo not drawn)

>  <TGI>
> 100 µM

$$$$

Consider now this further molecule.
TGI value, target or system TK-10 renal, for c1ccc(N=C2c3ccsc3C(=Nc3ccccc3)c3ccsc32)cc1 : 13.7 µM

---

Test system: SNB-75 CNS
Assay: NCI tumour cell line growth inhibition, 48 h
outcome measure: TGI

>  <molecule>
O=C1OC(=O)c2c1c(-c1ccccc1)nc1ccccc21

>  <test target>
SNB-75 CNS

>  <readout value>
> 100 µM

$$$$
>  <molecule>
O=C(Cc1nc2ccccc2o1)C(=O)Nc1cccc(C(F)(F)F)c1

>  <test target>
SNB-75 CNS

>  <readout value>
> 100 µM

$$$$
>  <molecule>
Cc1cc(=O)c2c(O)cc3c(c2o1)CC=C(COC1OC(COC2OC(CO)C(O)C(O)C2O)C(O)C(O)C1O)CO3 (configuration not stated)

>  <test target>
SNB-75 CNS

>  <readout value>
> 100 µM

$$$$
>  <molecule>
O=C(CN1N=C(c2ccc(F)cc2)CCC1=O)Nc1nc2ccccc2s1

>  <test target>
SNB-75 CNS

>  <readout value>
> 100 µM

$$$$
>  <molecule>
Cc1cc(C)c(C2CNCc3cc4c(cc32)CNCC4c2c(C)cc(C)cc2C)c(C)c1 (configuration not stated)

>  <test target>
SNB-75 CNS

>  <readout value>
1.92 µg/mL

$$$$

# value of TGI, SNB-75 CNS, item NC1=NC(=O)C(CC(=O)Nc2ccc(Cl)cc2Cl)S1 (configuration not stated) = > 100 µM

Form field, TGI with SNB-75 CNS, item Clc1ccc(C2ON=C(c3ccccc3)N2C23CC4CC(CC(C4)C2)C3)cc1 (configuration not stated) : > 10 µM

---

# reported TGI; entries follow
Test system: MALME-3M melanoma
Assay: NCI tumour cell line growth inhibition, 48 h

>  <compound>
CCOC(=O)Cn1nnc2ccc(Nc3nc4ccccc4nc3-c3ccccc3)cc21

>  <TGI>
> 100 µM

$$$$
>  <compound>
CCN(CCN(CC)C(=O)Nc1ccccc1)C(=O)Nc1ccccc1

>  <TGI>
> 100 µM

$$$$
>  <compound>
CNNC(=NS(=O)(=O)c1cc(C#N)c(NNC)cc1S)NNC

>  <TGI>
> 10 µM

$$$$

We next turn to a different compound, shown below.
Query Nc1nc2c(C(=O)O)c3ccc([N+](=O)[O-])cc3c(=O)n2c2ccccc12 on MALME-3M melanoma; TGI returned: > 100 µM

---

Tested on: MALME-3M melanoma
Experiment: NCI tumour cell line growth inhibition, 48 h
outcome measure: TGI

// below: answered molecules
>  <molecule>
Cc1cc(C)c(C2CNCc3cc4c(cc32)CNCC4c2c(C)cc(C)cc2C)c(C)c1 (stereo not drawn)

>  <test target>
MALME-3M melanoma

>  <TGI>
7.45 µg/mL

$$$$
>  <molecule>
CC1=C(CC2C(=O)N(c3ccccc3)S(=O)(=O)NC2C)C(=O)N(c2ccccc2)S(=O)(=O)N1C (stereo not drawn)

>  <test target>
MALME-3M melanoma

>  <TGI>
> 100 µM

$$$$

Please turn your attention to the following entry.
The observed TGI for O=Cc1ccc2c(c1I)OCO2 when tested with MALME-3M melanoma stands at > 100 µM
